# assayText: AlphaScreen signal interference compounds, dose response, artefact control for ARNT-TACC3 interaction inhibitor project, biochemical, luminescence, cherry-pick (AID 651705)
# studyConditions: His-ARNT PASB-GST AlphaScreen artifact counter-screen; series mostly up to 68 µM
Hit rate of the full screen: of about 1,200 compounds, about 620 (52%) were called active.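 How the source made its calls: active means every separate test run was called active for a drop in luminescence, with AC50 within twice the top valid dose (actives reach about 71 µM in these data); inconclusive means the separate test runs disagree in their calls; inactive means all runs inactive, including signal change in the wrong direction.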 The set was probably picked from earlier hits. Only a sample is shown.
Outcomes: active, inactive

| compound | groupLabel |
| --- | --- |
| O=C(NCCCn1ccnc1)c1cc(-c2ccccc2)on1 | inactive |
| C[C@@H]1CN([C@@H](C)CO)C(=O)c2cc(NS(=O)(=O)c3cccs3)ccc2O[C@H]1CN(C)CC1CCCCC1 | inactive |
| COc1ccc(Cc2nnc(N/N=C/c3ccccc3O)[nH]c2=O)cc1OC | active |
| CC(NC(=O)c1ccco1)C(=O)Nc1nc(-c2ccccn2)cs1 (stereo unspecified) | active |
| CCN(/N=C/c1ccccc1)c1cc(=O)n(C)c(=O)[nH]1 | inactive |
| Oc1c(CN2CCN(c3ccc(F)cc3)CC2)cc(Cl)c2cccnc12 | active |
| O=C(Nc1cnc2ccccc2c1)c1cc(-c2ccccc2)on1 | inactive |
| CN(c1ccc(C(=O)N2CCc3ccccc3C2)cc1)S(C)(=O)=O | inactive |
| COCCNC(=O)Cn1cc(C(=O)c2cccs2)c2ccccc21 | inactive |
| Cc1ccc(NC(=O)c2cc(-c3ccccc3)on2)cn1 | inactive |
| O=C(CN1C(=O)C2C3C=CC(C3)C2C1=O)Nc1nc(-c2ccccn2)cs1 (stereo unspecified) | active |
